test system: bone formation rate; test: 28-day mouse side-effect model, cortical bone histomorphometry (bone formation rate); format: in vivo; conditions: female, Swiss Webster, oral gavage 28 days, tibia cortical bone formation rate, read-out: BFR (ED50 dose)
Quick list: ED50 at 28 days per entry.
Just the number please, in mg/kg, no unit attached.

In the examples that follow, each entry is paired with its recorded ED50 at 28 days.
In: Look up and report measured ED50 at 28 days for this entry: Cc1ncccc1NC(=O)c1ccc2c(c1)CC[C@@H]1C[C@@](O)(c3ccccn3)[C@](C)(O)C[C@@]21Cc1ccccc1
Out: 3.72

In: State its ED50 at 28 days: Cc1ncccc1NC(=O)c1ccc2c(c1)C(=O)C[C@@H]1C[C@@](O)(c3ccccc3)[C@](C)(O)C[C@@]21Cc1ccccc1
Out: 0.12

In: Could you please provide reported ED50 at 28 days for Cc1ncccc1NC(=O)c1ccc2c(c1)CC[C@@H]1C[C@@](O)(C(F)(F)F)[C@](C)(O)C[C@@]21Cc1ccccc1 ? Thanks!
Out: 0.28

Here is another molecule to look at.
In: For C[C@@]1(O)C[C@@]2(Cc3ccccc3)c3ccc(C(=O)NCc4cccnc4)cc3CC[C@@H]2C[C@@]1(O)c1ccccc1 , write its ED50 at 28 days.
Out: 35.9

* * *

Each entry below carries its reported BFR (ED80 dose).
system: bone formation rate; assay: 28-day mouse side-effect model, cortical bone histomorphometry (bone formation rate); assay type: in vivo; settings: oral gavage 28 days, tibia cortical bone formation rate
I'd appreciate a reply containing only the number, no unit.

In: Please report BFR (ED80 dose) for the following molecule: Cc1ncccc1NC(=O)c1ccc2c(c1)CC[C@@H]1C[C@@](O)(c3ccccn3)[C@](C)(O)C[C@@]21Cc1ccccc1
Out: 7.88

New cases:
In: Provide one value: measured BFR (ED80 dose) of Cc1ncccc1NC(=O)c1ccc2c(c1)C(=O)C[C@@H]1C[C@@](O)(c3ccccc3)[C@](C)(O)C[C@@]21Cc1ccccc1
Out: 0.87

In: State its BFR (ED80 dose): Cc1ncccc1NC(=O)c1ccc2c(c1)CC[C@@H]1C[C@@](O)(C(F)(F)F)[C@](C)(O)C[C@@]21Cc1ccccc1
Out: 0.33

* * *

system: IL-1β; test: LPS-induced human whole blood, IL-1β release; format: cell-based; conditions: Homo sapiens, 12.34568 nM, mean of donors
Measure Name: inhibition at 0.0123457 µM (%)
Give the number; % is assumed, so skip it.

In: Check the records and state inhibition at 0.0123457 µM for Oc1ccc2c(c1)CC[C@@H]1C[C@@](O)(c3ccccc3)[C@@H](O)C[C@@]21Cc1ccccc1 [Comparator F]
Out: -5.49

In: Item C[C@]12C=CC(=O)C=C1CC[C@@H]1[C@@H]2[C@@H](O)C[C@@]2(C)[C@H]1CC[C@]2(O)C(=O)CO [Prednisolone] : provide inhibition at 0.0123457 µM
Out: 7.17

In: Look up inhibition at 0.0123457 µM of Cc1ncccc1COc1ccc2c(c1)CC[C@@H]1C[C@@](O)(c3ccccc3)[C@@H](O)C[C@@]21Cc1ccccc1 [Comparator G] and report it.
Out: -7.52

Let's switch to this compound now.
In: Specify inhibition at 0.0123457 µM for Cc1ncccc1CNC(=O)c1ccc2c(c1)CC[C@@H]1C[C@@](O)(CCC(F)(F)F)CC[C@@]21Cc1ccccc1 [Comparator A] and stop.
Out: 22.8

* * *

# key: entry, value: inhibition at 0.00411523 µM
test system: TNFα; assay: LPS-induced human whole blood, TNFα release; type: cell-based; settings: Homo sapiens, 4.115226 nM, mean of donors
Please state the figure in %; there is no need to write the unit.

In: Give the reported inhibition at 0.00411523 µM for this compound. Cc1ncccc1CNC(=O)c1ccc2c(c1)CC[C@@H]1C[C@@](O)(CCC(F)(F)F)CC[C@@]21Cc1ccccc1
Out: -0.861

In: Determine from records and report inhibition at 0.00411523 µM for Cc1ncccc1COc1ccc2c(c1)CC[C@@H]1C[C@@](O)(c3ccccc3)[C@@H](O)C[C@@]21Cc1ccccc1
Out: -2.9

In: Provide measured inhibition at 0.00411523 µM value, entry: C[C@]12C=CC(=O)C=C1CC[C@@H]1[C@@H]2[C@@H](O)C[C@@]2(C)[C@H]1CC[C@]2(O)C(=O)CO
Out: 8.95

In: Using known records, supply inhibition at 0.00411523 µM for Oc1ccc2c(c1)CC[C@@H]1C[C@@](O)(c3ccccc3)[C@@H](O)C[C@@]21Cc1ccccc1
Out: -8.12

* * *

Test system: osteocalcin
Assay: 28-day mouse side-effect model, serum osteocalcin suppression
Type: in vivo
Details: female, Swiss Webster, oral gavage 28 days, read-out: Osteocalcin Suppression (ED50 dose)
Procedure: 10-12 week old female Swiss Webster mice (Taconic, Germantown, N.Y., U.S.A.) weighing 27-29 grams are used in accordance with the guidelines of the Institutional Animal Care and Use Committee and in accordance with NIH guidelines on laboratory animal welfare. […] To establish a dosing regimen for the studies, a pilot pharmacodynamic time course experiment is conducted to quantify TNFa repression after a single ED80 dose (determined from the acute LPS endotoxemia mouse model). […]
Measure Name: ED50 at 28 days (mg/kg)
Number in mg/kg, nothing else.

Consider the worked cases shown below.
In: // fetch ED50 at 28 days for Cc1nc(Br)ccc1NC(=O)c1ccc2c(c1)CC[C@@H]1C[C@@](O)(c3ccccc3)[C@](C)(O)C[C@@]21Cc1ccccc1 [Comparator B] ; system: osteocalcin
Out: 0.21

In: Please tell me the measured ED50 at 28 days for Cc1ncccc1NC(=O)c1ccc2c(c1)CC[C@@H]1C[C@@](O)(C(F)(F)F)[C@](C)(O)C[C@@]21Cc1ccccc1 [Comparator E] ; system: osteocalcin.
Out: 0.78

In: Report value: ED50 at 28 days, system: osteocalcin, compound: Cc1ncccc1NC(=O)c1ccc2c(c1)C(=O)C[C@@H]1C[C@@](O)(c3ccccc3)[C@](C)(O)C[C@@]21Cc1ccccc1 [Example 1]
Out: 0.081

Note: attention shifts to another entry.
In: Report the value of ED50 at 28 days obtained on osteocalcin for Cc1ncccc1NC(=O)c1ccc2c(c1)CC[C@@H]1C[C@@](O)(c3ccccn3)[C@](C)(O)C[C@@]21Cc1ccccc1 [Comparator C] .
Out: 3.68

* * *

system: IFNγ; assay: LPS-induced human whole blood, IFNγ release; assay type: cell-based; conditions: Homo sapiens, 111.1111 nM, mean of donors
Measure Name: inhibition at 0.111111 µM (%)
Only the number, expressed in %, is required.

Past entries and their recorded results:
In: Look up and report measured inhibition at 0.111111 µM for this entry: Cc1ncccc1COc1ccc2c(c1)CC[C@@H]1C[C@@](O)(c3ccccc3)[C@@H](O)C[C@@]21Cc1ccccc1
Out: 2.66

In: Provide inhibition at 0.111111 µM value for the following compound: C[C@]12C=CC(=O)C=C1CC[C@@H]1[C@@H]2[C@@H](O)C[C@@]2(C)[C@H]1CC[C@]2(O)C(=O)CO
Out: 85.2

In: Complete the entry with inhibition at 0.111111 µM for Cc1ncccc1CNC(=O)c1ccc2c(c1)CC[C@@H]1C[C@@](O)(CCC(F)(F)F)CC[C@@]21Cc1ccccc1
Out: 8.74

Now look at this one.
In: Consider the compound Oc1ccc2c(c1)CC[C@@H]1C[C@@](O)(c3ccccc3)[C@@H](O)C[C@@]21Cc1ccccc1 and give its recorded inhibition at 0.111111 µM.
Out: -4.6

* * *

tested on: IFNγ; assay: LPS-induced human whole blood, IFNγ release; format: cell-based; conditions: Homo sapiens, 1000 nM, mean of donors
Quick reference for inhibition at 1 µM among some compounds
Numeric answer only, unit % assumed.

In: Identify inhibition at 1 µM associated with the compound Cc1ncccc1CNC(=O)c1ccc2c(c1)CC[C@@H]1C[C@@](O)(CCC(F)(F)F)CC[C@@]21Cc1ccccc1
Out: 16.5

In: Dear colleague, please send me the reported inhibition at 1 µM for Oc1ccc2c(c1)CC[C@@H]1C[C@@](O)(c3ccccc3)[C@@H](O)C[C@@]21Cc1ccccc1 when you can.
Out: 14.6

In: Please give measured inhibition at 1 µM of the following entry: Cc1ncccc1COc1ccc2c(c1)CC[C@@H]1C[C@@](O)(c3ccccc3)[C@@H](O)C[C@@]21Cc1ccccc1
Out: 13.2

Next:
In: Tell me inhibition at 1 µM reported for C[C@]12C=CC(=O)C=C1CC[C@@H]1[C@@H]2[C@@H](O)C[C@@]2(C)[C@H]1CC[C@]2(O)C(=O)CO
Out: 96.4

* * *

test system: LPS-induced TNFα; assay: 28-day mouse side-effect model, LPS-induced serum TNFα suppression; format: in vivo; conditions: oral gavage 28 days, LPS challenge
Quick reference for TNFα Suppression (ED80 dose) among some molecules
Just the number, please, no unit attached.

Use these answered entries as a reference point.
In: Return the recorded TNFα Suppression (ED80 dose) value; entry: Cc1ncccc1NC(=O)c1ccc2c(c1)CC[C@@H]1C[C@@](O)(c3ccccn3)[C@](C)(O)C[C@@]21Cc1ccccc1 [Comparator C]
Out: 9.87

In: # return recorded TNFα Suppression (ED80 dose) for entry Cc1ncccc1NC(=O)c1ccc2c(c1)C(=O)C[C@@H]1C[C@@](O)(c3ccccc3)[C@](C)(O)C[C@@]21Cc1ccccc1 [Example 1]
Out: 0.11

Others:
In: Name the recorded TNFα Suppression (ED80 dose) of the molecule listed here: Cc1nc(Br)ccc1NC(=O)c1ccc2c(c1)CC[C@@H]1C[C@@](O)(c3ccccc3)[C@](C)(O)C[C@@]21Cc1ccccc1 [Comparator B]
Out: 0.45

In: Given the molecule C[C@@]1(O)C[C@@]2(Cc3ccccc3)c3ccc(C(=O)NCc4cccnc4)cc3CC[C@@H]2C[C@@]1(O)c1ccccc1 [Comparator D] , write its reported TNFα Suppression (ED80 dose).
Out: 14.48
